system: NCI-H460 cells; assay: Cancer cell growth inhibition experiment (MTT assay); assay type: cell-based; details: Homo sapiens, lung cancer cell line, compounds 48 hours, cell viability by MTT assay
Below, each entry is listed with its recorded IC50.
property.measured: IC50

compound: O=C(C[C@H]1NCCC[C@@H]1O)Cn1cnc2ccc(-c3ccc(F)cc3)nc21 [Example 45]
experimental.result: 3 to 10 µM
--
compound: O=C(C[C@H]1NCCC[C@@H]1O)Cn1cnc2ccc(-c3cc[nH]n3)cc21 [Example 38]
experimental.result: ≥ 10 µM
--
compound: O=C(C[C@H]1NCCC[C@@H]1O)Cn1cnc2cccc(-c3ccc(C(F)(F)F)cc3)c21 [Example 54]
experimental.result: ≥ 10 µM
--
compound: O=C(C[C@H]1NCCC[C@@H]1O)Cn1cnc2ccc(-c3ccc(F)c(Cl)c3)cc21 [Example 33]
experimental.result: 3 to 10 µM
